test system: Saccharomyces cerevisiae; experiment: protein stability index of tFT-peptide fusion (C-terminal peptide) (PSI (0-1 scale)); higher = more stable (slower turnover); conditions: genetic background: wild type; temperature: 30 C
Binary call on protein stability index: fulfilled from 0.7 upward, not fulfilled beneath that.

entry.sequence	assigned.label
INDWLSSWKRSK [CRR1 C-terminal 12 aa]	fulfilled
TEIDESFEMTDF [KEX1 C-terminal 12 aa]	fulfilled
ALGLAGVAMLFL [SED1 C-terminal 12 aa]	not fulfilled
AGALAVAAAYLL [CWP1 C-terminal 12 aa]	not fulfilled
NRLKGQNSHQQR [RGS2 C-terminal 12 aa]	fulfilled
LYSLPISVPCTS [YDL086C-A C-terminal 12 aa]	not fulfilled
STDETPDNENKQ [SGT2 C-terminal 12 aa]	not fulfilled
PLMTVLGLEKKK [DPC13 C-terminal 12 aa]	not fulfilled
NGNNAESGETKQ [SSC1 C-terminal 12 aa]	not fulfilled

----------
test system: Saccharomyces cerevisiae; assay: protein stability index of tFT-peptide fusion (C-terminal peptide) (PSI (0-1 scale)); higher = more stable (slower turnover); details: genetic background: doa10 deletion; temperature: 30 C
# label = Satisfied if protein stability index >= 0.2 else Not satisfied

entry.sequence	assigned.label
YGHLPLLVLFCV	Satisfied
IWVWMLSVWLGG	Satisfied
VWRLCFPFALVR	Satisfied
FVLWWGWSWLVV	Not satisfied
LGCFGSSFVFCC	Not satisfied
SYVVVFVIFCVG	Not satisfied
PPSPPPLSASVP	Satisfied
VSVQVRCCPWVG	Satisfied
VFGFSLLTLLVL	Satisfied
AFFFCVVVLFSF	Not satisfied
GSVGFICCVVVV	Satisfied
GPVRTEFWLYVW	Satisfied
WDPEVVHRLWLN	Not satisfied
AGMLMCLYLFFV	Satisfied
LKKTLNGRRKMI	Satisfied
SSAPPTLHTRPS	Satisfied
LTACRYVCFLLF	Satisfied
FYPFHVFCLLIF	Not satisfied
CLSGPFRSLAVF	Satisfied
GAICCFCCYLVF	Satisfied
CGSLDLPHQCLL	Satisfied
SRRCGLFVFILF	Satisfied
GYACSIFYLRCV	Satisfied
FVRVFLRLGVVS	Not satisfied
SFLLVWCLLPEI	Satisfied
ICTHPCLRLRLN	Not satisfied
LFVMVSVSGLVV	Not satisfied
YGETRGGGRGRW	Satisfied
FTFPLPPSLLLV	Satisfied
LLLVSLAVPLSL	Satisfied
VGVCGSSGRVGG	Satisfied
PGFCFFLYYCMM	Satisfied
VGEQEVVGIGGV	Satisfied
LWFLDYVFICFL	Satisfied
GFTIFFFFFFFV	Satisfied
MFLHLGLFIMSH	Satisfied
TVGVGWVWVGVL	Satisfied
FWWVGCGWCRWG	Satisfied
VPQMLVSVCLSN	Satisfied
GGWFFWVGAWVV	Not satisfied
LILRVLFLFEPC	Satisfied
NKYSMQNVLKSF	Satisfied
RFKEKVSIIHKQ	Not satisfied
RQALYFLMICGL	Satisfied
RLHCFSPILCPI	Satisfied
FFRVCNALLLVC	Not satisfied
VFYRPFFVLFFV	Not satisfied
LIRLCVAPMVCR	Satisfied
TLFSFLLVFVFG	Not satisfied
AVLFAPPLSSNF	Satisfied
CSFCSGMILLLS	Satisfied
LLASFWKFIVNI	Not satisfied
TRVVSPNVILMC	Satisfied
VCVLRWAVAPCR	Satisfied
FRFSSLLYILLS	Not satisfied
CWYRAVSIQYVL	Satisfied
SWIKRYEITCIL	Satisfied
IERLRLRTRIIC	Not satisfied
FFCCRLPCLFVL	Not satisfied
KVFWRPAWVAEV	Satisfied
FVSVWVFLVSSF	Not satisfied
CMYTILRHKINN	Not satisfied
GNSAGSVGGGRF	Satisfied
VMYRGVRISWFL	Satisfied
SCFRSLAVYFLC	Not satisfied
GGWRVLHAWVAV	Satisfied
LLGGRVLWAWRV	Not satisfied
ACVWVVALVWVF	Not satisfied
WFFRLFFLFFSG	Satisfied
PLSSHIPVHEAR	Satisfied
LFSPLKGILSVM	Satisfied
NDVGGYFYVCSE	Satisfied
LTFRFGVNPYVF	Not satisfied
VLAARVVLLRCR	Not satisfied
GYRFSILSILRV	Satisfied
SVVWIRFVGVRV	Satisfied
RRRRHVDHSTQR	Satisfied
SIVDLFRLRSLS	Satisfied
GLGMVIIGLLIG	Not satisfied
LWLFIVCWVGCV	Not satisfied
VRVLPFCWCIVR	Satisfied
